# Species: Rattus norvegicus
# assay-overview: DrugMatrix - Regimen: Daily Repeat
# Type: toxicity, organism-based, Sprague-Dawley
# Set-up: regimen Daily Repeat, gender Male, age 6-8 weeks
# measurement-setup: in vivo, po, 0 mg/kg, 72 h, tissue Plasma, route oral GAVAGE, dose level Control, time 3 day, […]
Please enter label 1 where CARBON DIOXIDE is greater than or equal to 30 mmol/L, and label 0 where it is lower.

CC(=O)Nc1ccc(O)cc1 = label 1
C[C@H]1O[C@@H](O[C@H]2[C@@H](O)C[C@H](O[C@H]3[C@@H](O)C[C@H](O[C@H]4CC[C@@]5(C)[C@H](CC[C@@H]6[C@@H]5CC[C@]5(C)[C@@H](C7=CC(=O)OC7)CC[C@]65O)C4)O[C@@H]3C)O[C@@H]2C)C[C@H](O)[C@@H]1O = label 0
C[C@]12CC[C@@H]3c4ccc(O)cc4CC[C@H]3[C@@H]1CC[C@@H]2O = label 1
CC(=O)Nc1cccc(O)c1 = label 0
Cc1cccc(Nc2ccncc2S(=O)(=O)NC(=O)NC(C)C)c1 [TORSEMIDE] = label 1

----------
# Species on record: Rattus norvegicus
# assay-overview: DrugMatrix - Regimen: Daily Repeat
# Assay type: toxicity, organism-based, Sprague-Dawley
# Parameters: regimen Daily Repeat, gender Male, age 6-8 weeks
# measurement-setup: in vivo, ip, 40 mg/kg, 120 h, tissue Blood, route intraperitoneal, dose level High, time 5 day, vehicle 100 % SALINE
outcome-measure: ABSOLUTE LYMPHOCYTE (cells/µL)

CCN[C@@H]1C[C@H](N)[C@@H](O[C@H]2OC(CN)=CC[C@H]2N)[C@H](O)[C@H]1O[C@H]1OC[C@](C)(O)[C@H](NC)[C@H]1O = 9410

----------
# Species on record: Rattus norvegicus
# assay-overview: DrugMatrix - Regimen: Daily Repeat
# Type: toxicity, organism-based, Sprague-Dawley
# Design: regimen Daily Repeat, gender Male, age 6-8 weeks
# measurement-setup: in vivo, po, 0 mg/kg, 120 h, tissue Plasma, route oral GAVAGE, dose level Control, time 5 day, vehicle .5 % CMC
outcome-measure: LIPASE

CNC(=C[N+](=O)[O-])NCCSCc1ccc(CN(C)C)o1 = 10.33 u/L
Clc1ccc2c(c1)C(N1CCNCC1)=Nc1ccccc1O2 = 10.67 u/L
CC(C)[C@H]1CC[C@H](C(=O)N[C@H](Cc2ccccc2)C(=O)O)CC1 [NATEGLINIDE] = 10.67 u/L

----------
# Species: Rattus norvegicus
# assay-overview: DrugMatrix - Regimen: Daily Repeat
# Type: toxicity, organism-based, Sprague-Dawley
# Design: regimen Daily Repeat, gender Male, age 6-8 weeks
# measurement-setup: in vivo, po, 0 mg/kg, 120 h, tissue Plasma, route oral GAVAGE, dose level Control, time 5 day, […]
Items are presented alongside their recorded ALBUMIN.
outcome-measure: ALBUMIN (G/DL)

CC(=O)Nc1cccc(O)c1 = 4.17
C[C@H]1O[C@@H](O[C@H]2[C@@H](O)C[C@H](O[C@H]3[C@@H](O)C[C@H](O[C@H]4CC[C@@]5(C)[C@H](CC[C@@H]6[C@@H]5CC[C@]5(C)[C@@H](C7=CC(=O)OC7)CC[C@]65O)C4)O[C@@H]3C)O[C@@H]2C)C[C@H](O)[C@@H]1O = 4.12
CC/C(=C(/CC)c1ccc(O)cc1)c1ccc(O)cc1 = 3.97
COc1ccc2[nH]c([S+]([O-])Cc3ncc(C)c(OC)c3C)nc2c1 (configuration not stated) = 3.73
O=NN(CCCl)C(=O)NCCCl = 4.15
Cc1cccc(Nc2ccncc2S(=O)(=O)NC(=O)NC(C)C)c1 [TORSEMIDE] = 4.07
CC(C)(Oc1ccc(C2CCCc3ccccc32)cc1)C(=O)O (configuration not stated) = 4.03
COCCOC(=O)C1=C(C)NC(C)=C(C(=O)OC(C)C)C1c1cccc([N+](=O)[O-])c1 (configuration not stated) = 4.12
Clc1ccc(Cl)cc1 = 4.07
CC(=O)Nc1ccc(O)cc1 = 4.15
CCCCCCCCc1ccc(O)cc1 = 3.92
CC(C)Cc1ccc(C(C)C(=O)O)cc1 (configuration not stated) = 3.87

----------
Items are presented alongside their recorded LIPASE.
# Species: Rattus norvegicus
# assay-overview: DrugMatrix - Regimen: Daily Repeat
# Assay type: toxicity, organism-based, Sprague-Dawley
# Parameters: regimen Daily Repeat, gender Male, age 6-8 weeks
# measurement-setup: in vivo, po, 1500 mg/kg, 72 h, tissue Plasma, route oral GAVAGE, dose level High, time 3 day, vehicle .5 % CMC
outcome-measure: LIPASE (u/L)

Cc1cc(=O)n(-c2ccccc2)n1C [ANTIPYRINE] = 9.67
Cc1ccc(S(=O)(=O)NC(=O)NN2CC3CCCC3C2)cc1 (configuration not stated) [GLICLAZIDE] = 8.67
CO[C@H]1/C=C/O[C@@]2(C)Oc3c(C)c(O)c4c(c3C2=O)C2=NC3(CCN(CC(C)C)CC3)NC2=C(NC(=O)/C(C)=C\C=C\[C@H](C)[C@H](O)[C@@H](C)[C@@H](O)[C@@H](C)[C@H](OC(C)=O)[C@@H]1C)C4=O [RIFABUTIN] = 11
C[C@]1(Cn2ccnn2)[C@H](C(=O)O)N2C(=O)C[C@H]2S1(=O)=O [TAZOBACTAM] = 9
NC(=O)c1cnccn1 [PYRAZINAMIDE] = 9
CNC(=C[N+](=O)[O-])NCCSCc1ccc(CN(C)C)o1 [RANITIDINE] = 9.33
O=C(N[C@H](CO)[C@H](O)c1ccc([N+](=O)[O-])cc1)C(Cl)Cl [CHLORAMPHENICOL] = 9.33

----------
# Species: Rattus norvegicus
# Assay type: toxicity, organism-based, Sprague-Dawley
# measurement-setup: in vivo, po, 900 mg/kg, 24 h, tissue Blood, route oral GAVAGE, dose level High, time 1 day, […]
# Description: DrugMatrix - Regimen: Single
outcome-measure: ABSOLUTE BASOPHIL (cells/µL)

Clc1ccc(Cl)cc1 = 10

----------
# Organism: Rattus norvegicus
# assay-overview: DrugMatrix - Regimen: Daily Repeat
# Assay type: toxicity, organism-based, Sprague-Dawley
# Set-up: regimen Daily Repeat, gender Male, age 6-8 weeks
# measurement-setup: in vivo, iv, 0 mg/kg, 72 h, tissue Plasma, dose level Control, time 3 day, vehicle 100 % SALINE
outcome-measure: ALKALINE PHOSPHATASE (u/L)

COc1cccc2c1C(=O)c1c(O)c3c(c(O)c1C2=O)C[C@@](O)(C(=O)CO)C[C@@H]3O[C@H]1C[C@H](N)[C@H](O)[C@H](C)O1 = 292.33
CCC1=C[C@@H]2CN(C1)Cc1c([nH]c3ccccc13)[C@@](C(=O)OC)(c1cc3c(cc1OC)N(C)[C@H]1[C@@](O)(C(=O)OC)[C@H](OC(C)=O)[C@]4(CC)C=CCN5CC[C@]31[C@@H]54)C2 = 400.83
CC(=O)N[C@@H]1[C@H](Oc2c3cc4cc2Oc2ccc(cc2Cl)[C@@H](O[C@@H]2O[C@@H](CO)[C@@H](O)[C@H](O)[C@@H]2NC(C)=O)[C@@H]2NC(=O)[C@H](NC(=O)[C@@H]4NC(=O)[C@H]4NC(=O)[C@@H](Cc5ccc(c(Cl)c5)O3)NC(=O)[C@H](N)c3ccc(O)c(c3)Oc3cc(O)cc4c3)c3ccc(O)c(c3)-c3c(O[C@H]4O[C@H](CO)[C@@H](O)[C@@H](O)[C@@H]4O)cc(O)cc3[C@@H](C(=O)O)NC2=O)O[C@@H](CO)[C@@H](O)[C@@H]1O = 396.33
CC[C@]1(O)C[C@@H]2CN(CCc3c([nH]c4ccccc34)[C@@](C(=O)OC)(c3cc4c(cc3OC)N(C)[C@H]3[C@@](O)(C(=O)OC)[C@H](OC(C)=O)[C@]5(CC)C=CCN6CC[C@]43[C@@H]65)C2)C1 = 406.83
CCc1c2c(nc3ccc(OC(=O)N4CCC(N5CCCCC5)CC4)cc13)-c1cc3c(c(=O)n1C2)COC(=O)[C@]3(O)CC = 334
COc1cccc2c1C(=O)c1c(O)c3c(c(O)c1C2=O)C[C@@](O)(C(=O)CO)C[C@@H]3O[C@H]1C[C@H](N)[C@@H](O)[C@H](C)O1 [EPIRUBICIN] = 334

----------
Items are presented alongside their recorded ABSOLUTE MONOCYTE.
# Organism: Rattus norvegicus
# assay-overview: DrugMatrix - Regimen: Daily Repeat
# Assay type: toxicity, organism-based, Sprague-Dawley
# Parameters: regimen Daily Repeat, gender Male, age 6-8 weeks
# measurement-setup: in vivo, po, 0 mg/kg, 72 h, tissue Blood, route oral GAVAGE, dose level Control, time 3 day, vehicle 100 % WATER
outcome-measure: ABSOLUTE MONOCYTE (CELLS/uL)

COC(=O)C1=C(C)NC(C)=C(C(=O)OCC(C)C)C1c1ccccc1[N+](=O)[O-] (stereo not drawn) [NISOLDIPINE] = 13.5
C[C@@H]1C[C@@H]([C@H](O)CC2CC(=O)NC(=O)C2)C(=O)[C@@H](C)C1 [CYCLOHEXIMIDE] = 456.33
CC(C)(C)c1ccc(C(=O)CCCN2CCC(OC(c3ccccc3)c3ccccc3)CC2)cc1 [EBASTINE] = 66.17

// provenance: ChEMBL document CHEMBL3885881
